Molecular target: Neu5Ac(a2-8)Neu5Ac
Test: glycan array binding signal (z-score within array); higher = stronger binding
Settings: glycan notation: IUPAC condensed, linker removed
The entries come from a sample that favours the strongest signals as a whole.
Please provide measured glycan array binding signal (z-score) for the entries that follow.
Just the number.

So what does the record say about glycan array binding signal (z-score) for CREG (Mus musculus), O88668 (protein) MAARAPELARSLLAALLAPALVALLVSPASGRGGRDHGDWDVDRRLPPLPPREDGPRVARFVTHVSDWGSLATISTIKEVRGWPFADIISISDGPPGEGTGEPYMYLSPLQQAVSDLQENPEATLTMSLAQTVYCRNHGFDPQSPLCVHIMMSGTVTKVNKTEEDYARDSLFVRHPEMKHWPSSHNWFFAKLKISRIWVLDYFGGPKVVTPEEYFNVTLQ ?
-0.211

So what does the record say about glycan array binding signal (z-score) for GNL (Galanthus nivalis) (protein) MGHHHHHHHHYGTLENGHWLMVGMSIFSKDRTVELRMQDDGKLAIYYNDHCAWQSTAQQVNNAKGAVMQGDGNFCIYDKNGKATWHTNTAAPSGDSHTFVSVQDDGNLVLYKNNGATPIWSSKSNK ?
-0.189

So what does the record say about glycan array binding signal (z-score) for AAL (Agrocybe aegerita), Q6WY08 (protein) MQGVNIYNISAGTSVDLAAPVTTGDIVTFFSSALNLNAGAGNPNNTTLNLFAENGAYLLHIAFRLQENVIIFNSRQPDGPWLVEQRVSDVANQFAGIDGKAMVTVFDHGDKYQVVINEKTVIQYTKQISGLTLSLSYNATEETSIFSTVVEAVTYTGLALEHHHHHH ?
-0.146
